experiment: DPPH free radical scavenging experiment (antioxidant activity)
Assay type: biochemical
measurementSetup: average of three parallel experiments; 0.1 mM DPPH, 30 min in the dark, 517 nm
resultType: IC50 (µM)

compound="O=C(/C=C/c1ccc(O)c2oc(-c3ccc(O)c(O)c3)cc12)O[C@H](Cc1ccc(O)c(O)c1)C(=O)O [Salvianolic acid C, reference compound]" boundoperator== quantitativeresult=6.87
compound="COC(=O)[C@@H](Cc1ccc(OC)c(OC)c1)OC(=O)/C=C/c1ccc(OC)c2oc(-c3ccc(OC)c(OC)c3)cc12 [Compound 7]" boundoperator=> quantitativeresult=100

====

Test system: LPS-stimulated macrophage RAW 264.7
experiment: Scavenging of superoxide anion in LPS-stimulated macrophage RAW 264.7 (2-OH-E+ by LC-MS)
Type: cell-based
measurementSetup: test drug 10 μM, 0.1 μg/mL LPS, 24 h, RAW 264.7
resultType: Decrease of 2-OH-E+ (%)

compound=COC(=O)[C@H](Cc1ccc(O)c(O)c1)NC(=O)/C=C/c1ccc(O)c2oc(-c3ccc(O)c(O)c3)cc12 resulttype="Decrease of 2-OH-E+ (%)" result=78.59%
compound="O=C(/C=C/c1ccc(O)c2oc(-c3ccc(O)c(O)c3)cc12)O[C@H](Cc1ccc(O)c(O)c1)C(=O)O [Salvianolic acid C, reference compound]" resulttype="Decrease of 2-OH-E+ (%)" result=37.82%
compound=COC(=O)[C@H](C)NC(=O)/C=C/c1ccc(O)c2oc(-c3ccc(O)c(O)c3)cc12 resulttype="Decrease of 2-OH-E+ (%)" result=60.54%
compound=O=C(/C=C/c1ccc(O)c2oc(-c3ccc(O)c(O)c3)cc12)N[C@@H](Cc1ccc(O)cc1)C(=O)O resulttype="Decrease of 2-OH-E+ (%)" result=83.41%
compound=O=C(/C=C/c1ccc(O)c2oc(-c3ccc(O)c(O)c3)cc12)N[C@H](Cc1ccc(O)c(O)c1)C(=O)O resulttype="Decrease of 2-OH-E+ (%)" result=80.81%
compound=O=C(/C=C/c1ccc(O)c2oc(-c3ccc(O)c(O)c3)cc12)N[C@@H](Cc1ccccc1)C(=O)O resulttype="Decrease of 2-OH-E+ (%)" result=81.27%
compound="Cc1c(C)c2c(c(C)c1O)CC[C@@](C)(CCC[C@H](C)CCC[C@H](C)CCCC(C)C)O2 [Ve, vitamin E, reference compound]" resulttype="Decrease of 2-OH-E+ (%)" result=53.18%
compound=COC(=O)[C@@H](Cc1ccc(O)c(O)c1)NC(=O)/C=C/c1ccc(O)c2oc(-c3ccc(O)c(O)c3)cc12 resulttype="Decrease of 2-OH-E+ (%)" result=74.16%
compound=C[C@H](NC(=O)/C=C/c1ccc(O)c2oc(-c3ccc(O)c(O)c3)cc12)C(=O)O resulttype="Decrease of 2-OH-E+ (%)" result=41.65%
